IC50 values for the compounds below.
Target: Muscarinic acetylcholine receptor M5 (Homo sapiens)
Sequence (P08912 whole entry): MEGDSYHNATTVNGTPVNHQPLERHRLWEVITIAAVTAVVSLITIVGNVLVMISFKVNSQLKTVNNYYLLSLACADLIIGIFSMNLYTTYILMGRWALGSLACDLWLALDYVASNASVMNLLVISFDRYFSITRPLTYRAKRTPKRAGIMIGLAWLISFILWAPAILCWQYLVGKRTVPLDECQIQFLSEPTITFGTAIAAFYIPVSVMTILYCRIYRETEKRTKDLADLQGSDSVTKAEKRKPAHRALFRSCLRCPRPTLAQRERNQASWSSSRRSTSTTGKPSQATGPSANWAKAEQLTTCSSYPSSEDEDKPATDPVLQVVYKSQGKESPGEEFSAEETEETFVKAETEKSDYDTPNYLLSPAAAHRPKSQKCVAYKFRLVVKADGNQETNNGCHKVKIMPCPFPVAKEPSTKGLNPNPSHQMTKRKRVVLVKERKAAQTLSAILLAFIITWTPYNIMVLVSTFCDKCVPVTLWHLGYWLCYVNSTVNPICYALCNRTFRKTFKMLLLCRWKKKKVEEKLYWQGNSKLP
Assay: Evaluated for its binding affinity at human muscarinic receptor m5 by the displacement of [3H]NMS binding using membranes from transfected chinese hamster ovarian cell

- COMPOUND: "CCOC(=O)c1c[nH]c2ccc3c(c12)CN1CCc2cc(OC)ccc2C1O3 (configuration not stated)"
  IC50: "6 µM"
- COMPOUND: "COc1cc2c(cc1OC)C1Oc3ccc4[nH]c(C)cc4c3CN1CC2 (configuration not stated)"
  IC50: "43.5 µM"
- COMPOUND: "CC1OC(=O)[C@H]2C[C@H]3CCCC[C@@H]3[C@@H](/C=C/C3CCC[C@H](C)N3C)[C@@H]12 (single isomer, unassigned)"
  IC50: "1.02 µM"
- COMPOUND: "COc1ccc2c(c1)CCN1Cc3c(ccc4[nH]c(C)c(C(=O)OC(C)C)c34)OC21 (configuration not stated)"
  IC50: "4.74 µM"
- COMPOUND: "CCOC(=O)c1c(C)[nH]c2ccc3c(c12)CN1CCc2cc(OCC)ccc2C1O3 (configuration not stated)"
  IC50: "8.62 µM"
- COMPOUND: "CCOC(=O)c1c(C)[nH]c2ccc3c(c12)CN1CCc2cccc(C)c2C1O3 (configuration not stated)"
  IC50: "1.73 µM"
- COMPOUND: "CCOC(=O)c1c(C)[nH]c2ccc3c(c12)CN1CCc2ccc(OC)cc2C1O3 (configuration not stated)"
  IC50: "8.21 µM"
- COMPOUND: "CCOC(=O)c1c(C)[nH]c2ccc3c(c12)CN1CCc2ccccc2C1O3 (configuration not stated)"
  IC50: "4.19 µM"
- COMPOUND: "COC(=O)c1c(C)[nH]c2ccc3c(c12)CN1CCc2ccccc2C1O3 (configuration not stated)"
  IC50: "5.76 µM"
- COMPOUND: "CCOC(=O)c1c(C)[nH]c2ccc3c(c12)CN1CCc2cc(Oc4ccccc4)ccc2C1O3 (configuration not stated)"
  IC50: "2.03 µM"
- COMPOUND: "COc1ccc2c(c1)CCN1Cc3c(ccc4[nH]c(C)cc34)OC21 (configuration not stated)"
  IC50: "18 µM"
- COMPOUND: "COC(=O)c1c(C)[nH]c2ccc3c(c12)CN1CCc2cc(OC)ccc2C1O3 (configuration not stated)"
  IC50: "4.09 µM"
- COMPOUND: "CCCOC(=O)c1c(C)[nH]c2ccc3c(c12)CN1CCc2cc(OC)ccc2C1O3 (configuration not stated)"
  IC50: "3.81 µM"
- COMPOUND: "CCOC(=O)c1c(C)[nH]c2ccc3c(c12)CN1CCc2cc(OC)ccc2C1O3 (configuration not stated)"
  IC50: "7.41 µM"
- COMPOUND: "CCOC(=O)c1c(C)[nH]c2ccc3c(c12)CN1CCc2cc(C)ccc2C1O3 (configuration not stated)"
  IC50: "3.88 µM"
- COMPOUND: "CCOC(=O)c1c(C)[nH]c2ccc3c(c12)CN1CCc2cc(OC)c(OC)cc2C1O3 (configuration not stated)"
  IC50: "26.6 µM"
- COMPOUND: "CCOC(=O)c1c[nH]c2ccc3c(c12)CN1CCc2cc(OC)c(OC)cc2C1O3 (configuration not stated)"
  IC50: "47.4 µM"
